Target: native Aβ aggregates in human AD brain tissue sections (Homo sapiens)
Construct: native Aβ aggregates in human AD brain tissue samples; from tissue; host or cells: human AD brain tissue sections
Sequence (P05067 672-713 limits assumed): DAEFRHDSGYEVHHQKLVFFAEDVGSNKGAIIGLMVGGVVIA
Test: Aβ in vitro displacement assay (selectivity counterscreen, [3H]Example 3 autoradiography)
Type: binding
Details: 1 μM compound; 3 nM [3H]Example 3; human AD brain sections; read-out: sel. counterscreen PCT_INHIB AD @ 1 μM (% displacement of [3H]Example 3)
Classify by measured inhibition at 1 µM: True if it is equal to or exceeds 90%, False if it is smaller.

# Smiles Text, Group
rows = [
    ("CN1CCN(c2ccc(C(=O)Nc3ccc(N4CCN(c5ccccn5)CC4)cc3)cc2)CC1", "True"),
    ("Cc1ccc(C(=O)Nc2cnc(N3CCN(c4ccccn4)CC3)cn2)nc1", "False"),
    ("CN(C)c1ccc(C(=O)Nc2ccc(N3CCN(c4ccccn4)CC3)cn2)cc1", "True"),
]

q: Textbook exercise: given the entry "COc1ccc(C(=O)Nc2ccc(N3CCN(c4ccc(C#N)c(C)c4)CC3)cc2)cc1" , state whether its inhibition at 1 µM is greater than or equal to 90%.
a: False

q: Textbook exercise: given the entry "COc1ccc(C(=O)Nc2ccc(N3CCN(c4ccncc4C)CC3)cc2)cc1" , state whether its inhibition at 1 µM is greater than or equal to 90%.
a: True
